# System: OVCAR-5
# assay-comment: NCI tumour cell line growth inhibition, 48 h
Activity calls are given as the source filed them. Cut-off read from the data, not from the text of the source: active = GI50 up to about 1.1 µM and inactive = higher.
Outcome codes: 1 (yes) = active, 0 (no) = inactive

molecule=Nc1ccccc1C(=O)NC(=O)Nc1ccc(Oc2ncc(Br)cn2)c(Cl)c1 assigned_label="1 (yes)"
molecule=N=C(N)NS(=O)(=O)c1ccc(Nc2c3ccccc3nc3c(C(=O)N4CCN(CCO)CC4)ccc(Cl)c23)cc1 assigned_label="0 (no)"
molecule="COC(=O)C(=O)C(C(=O)C(=O)Nc1ccc([N+](=O)[O-])cc1C#N)c1nc2ccc([N+](=O)[O-])cc2nc1O (centres undefined)" assigned_label="0 (no)"
molecule="CN(C)CC1CN/C(=N\\C(=O)Nc2ccccc2)O1 (centres undefined)" assigned_label="0 (no)"
